# target.or.test.system: Human EphA2 (ephrin receptor A2) on cells (human, UniProt P29317 25-976)
# Sequence (P29317 25-976): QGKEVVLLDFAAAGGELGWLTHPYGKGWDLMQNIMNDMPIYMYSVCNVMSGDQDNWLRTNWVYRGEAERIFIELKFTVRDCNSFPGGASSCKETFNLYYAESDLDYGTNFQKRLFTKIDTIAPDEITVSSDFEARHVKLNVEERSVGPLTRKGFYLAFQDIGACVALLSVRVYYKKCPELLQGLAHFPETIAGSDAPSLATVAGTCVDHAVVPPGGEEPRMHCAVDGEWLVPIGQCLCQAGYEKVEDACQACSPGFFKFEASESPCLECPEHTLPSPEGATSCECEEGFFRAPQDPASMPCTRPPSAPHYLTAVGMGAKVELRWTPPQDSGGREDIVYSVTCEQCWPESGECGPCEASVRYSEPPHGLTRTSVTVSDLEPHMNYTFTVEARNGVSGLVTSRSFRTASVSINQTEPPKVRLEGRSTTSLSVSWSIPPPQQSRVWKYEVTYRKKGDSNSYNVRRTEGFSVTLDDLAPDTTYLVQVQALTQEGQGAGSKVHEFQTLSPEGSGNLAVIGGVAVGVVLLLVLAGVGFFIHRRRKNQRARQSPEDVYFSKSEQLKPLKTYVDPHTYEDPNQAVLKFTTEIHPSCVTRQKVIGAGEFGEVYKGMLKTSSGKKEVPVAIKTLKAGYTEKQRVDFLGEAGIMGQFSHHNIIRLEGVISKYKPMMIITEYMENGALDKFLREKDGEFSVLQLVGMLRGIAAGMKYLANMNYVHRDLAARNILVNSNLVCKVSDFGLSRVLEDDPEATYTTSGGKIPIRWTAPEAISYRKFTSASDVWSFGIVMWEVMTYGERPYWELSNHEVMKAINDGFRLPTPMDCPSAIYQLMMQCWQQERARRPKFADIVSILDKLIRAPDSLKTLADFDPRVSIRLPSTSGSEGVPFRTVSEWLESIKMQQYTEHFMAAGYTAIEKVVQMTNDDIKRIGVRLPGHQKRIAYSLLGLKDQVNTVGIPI
# test.details: cell-based or functional assay
experimental.readout: ADCC Fold-improved (against AB-008873) (fold)
# number only, unit fold dropped from output

Using the record for AB-010364 (antibody, mouse IgG2a, V domains shown) VH: QVQLQQWGAGLLKPSETLSLTCAVYGGSFSGYYWSWIRQPPGKGLEWIGEINHAGSINYNNYNPSLKSRVTISVDTSKNQFSLKLSSVTAADTAVYYCAKPLRPHCTNGVCYSGDAFDIWGQGTMVTVAS VL: SYVLTQPPSVSVAPGQTARITCGGNNIGSKNVHWYQQKPGQAPVLVVYDDSDRPSGIPEQFSGSNSGNTATLTISRVEAGDEADYYCQVWDSSSDHVVFGGGTKLTVL , state its measured ADCC Fold-improved (against AB-008873).
2.4

Identify measured ADCC Fold-improved (against AB-008873) corresponding to AB-010367 (antibody, V domains shown) VH: QVQLQQWGAGLLKPSETLSLTCAVYGGSFSGYYWSWIRQPPGKGLEWIGEINHQGSINYNNYNPSLKSRVTISVDTSKNQFSLKLSSVTAADTAVYYCAKPLRPHCTNGVCYSGDAFDIWGQGTMVTVAS VL: SYVLTQPPSVSVAPGQTARITCGGNNIGSKNVHWYQQKPGQAPVLVVYDDSDRPSGIPERFSGSNSGNTATLTISRVEAGDEADYYCQVWDSSSDHVVFGGGTKLTVL
0.81

// Input: AB-010360 (antibody, mouse IgG2a, V domains shown) VH: QVQLQQWGAGLLKPSETLSLTCAVYGGSFSGYYWSWIRQPPGKGLEWIGEINHRGSINYNNYNPSLKSRVTISVDTSKNQFSLKLSSVTAADTAVYYCAKPLRPHCTNGVCYSGDAFDIWGQGTMVTVAS VL: SYVLTQPPSVSVAPGQTARITCGGNNIGSKNVHWYQQKPGQAPVLVVYDDSDRPSGIPEQFSGSNSGNTATLTISRVEAGDEADYYCQVWDSSSDHLVFGGGTKLTVL . Output its ADCC Fold-improved (against AB-008873) only.
8.09

# credit: patent US20250276077A1
